These measurements were taken from patent EP0280873A1.

target: Dopamin (D₂)-Rezeptor (Rattus norvegicus); construct: Die Striata werden herauspräpariert und in 25 ml eiskaltem Puffer; from tissue; host or cells: rat striatum membrane homogenate; test: Dopamine (D2) receptor binding affinity, 3H-spiroperidol displacement in rat striatal homogenate; parameters: species or system Ratten
Sequence (P61169 whole entry): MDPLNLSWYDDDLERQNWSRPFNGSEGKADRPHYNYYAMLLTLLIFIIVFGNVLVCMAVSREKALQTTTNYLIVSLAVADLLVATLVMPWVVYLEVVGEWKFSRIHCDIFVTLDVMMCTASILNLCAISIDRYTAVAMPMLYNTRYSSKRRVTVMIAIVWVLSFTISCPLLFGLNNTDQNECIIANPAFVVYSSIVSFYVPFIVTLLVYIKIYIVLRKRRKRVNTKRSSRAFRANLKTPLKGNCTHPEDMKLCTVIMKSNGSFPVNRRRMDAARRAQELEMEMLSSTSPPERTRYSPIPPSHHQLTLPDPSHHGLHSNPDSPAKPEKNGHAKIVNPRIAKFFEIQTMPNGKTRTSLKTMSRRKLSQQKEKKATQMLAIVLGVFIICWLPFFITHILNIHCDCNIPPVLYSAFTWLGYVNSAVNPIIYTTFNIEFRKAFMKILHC
Kindly state pKi for each of the entries shown.
Give bare numbers, as −log10 of the molar value.

> print(dat)
                               compound                                    system  value.observed
1  CCCN1CCC(c2csc(N)n2)CC1 [Substanz F]  Dopamin (D₂)-Rezeptor (Rattus norvegicus)            7.42

// each compound listed below needs its pKi
1. C=CCN1CC=C(c2csc(N)n2)CC1 [Substanz C]
2. CCCN1CC=C(c2csc(N)n2)CC1 [Substanz D]

Found:
1: 7.66; 2: 8.22
